biological target: T1, P. vivax Reticulocyte Binding Protein 2b, residues 161–1454 (P. vivax strain Salvador I, UniProt A5K736, DyLight 488 (NHS ester) in the FRET assay; biotin (BirA site) in the competition ELISA between human mAbs); assay: ELISA; avidity ELISA: plates coated with 50 ng PvRBP2b161–1454; human mAbs at 0.2 µg/mL; then PBS, 0.5, 1 or 2 M NH4SCN for 20 min; binding relative to no NH4SCN; settings: both partners purified
T1 construct: PvRBP2b, P. vivax strain Salvador I, PlasmoDB PVX_094255 (total length 2806 amino acids), residues 161-1454; also called PvRBP2b_(161–1454); PvRBP2b; source: recombinant; expressed and purified in a similar manner as PvRBP2b161–470 (E. coli SHuffle T7; HisTrap, Q-Sepharose, size exclusion) or as previously described
Endpoint name: percent binding left at 2 M NH4SCN

Lookup result for PvRBP2b human mAb 241242 (antibody, V domains shown, variable region as the Fab heavy chain in PDB 6WN1; cloned into a human IgG1 backbone, full-length antibody; lambda light chain; as the Fab light chain in PDB 6WN1; IgG1; also called 241424 [sic]; source: Expi293 HEK cells, transfected, purified (Protein A, gel filtration)) VH: EVQLLESGGGLVQPGGSLRLSCAVSGFTFRNYALSWVRQAPGKGLDWVSTISASGGATYYADSVKGHFTISRDNSKNILYLDMKSLRAEDTAIYYCARDGGSYTPYFFLDSWGQGALVTVSS VL: SYELTQPASVSVAPGQTAQITCGGNSIGRKSIHWYQHKPGQAPVLVISYDSDRPSGIPERFSGSNSGNTATLTISKVEAGDEADFYCQVRDSDNDHVVFGGGTKLTVL ; measured percent binding left at 2 M NH4SCN: < 75%

Each recorded value in this set is attributed to paper PMC7943553.
